TARGET: human plasma renin (Homo sapiens, UniProt P00797)
Construct: from tissue; host or cells: human plasma
Sequence (P00797 67-406): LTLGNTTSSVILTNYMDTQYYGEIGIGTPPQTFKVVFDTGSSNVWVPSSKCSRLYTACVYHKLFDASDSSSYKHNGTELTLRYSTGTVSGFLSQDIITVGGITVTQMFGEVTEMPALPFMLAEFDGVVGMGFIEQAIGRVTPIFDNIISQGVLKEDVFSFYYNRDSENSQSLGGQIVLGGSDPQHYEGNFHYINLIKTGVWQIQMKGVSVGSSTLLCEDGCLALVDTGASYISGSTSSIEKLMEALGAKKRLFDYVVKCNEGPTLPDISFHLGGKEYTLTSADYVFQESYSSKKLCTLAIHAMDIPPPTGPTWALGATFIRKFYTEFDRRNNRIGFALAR
METHOD: Renin inhibiting activities (human plasma, angiotensin I by radio immunoassay)
Assay type: biochemical
EXPERIMENTAL_CONTEXT: pH7.4, 37° C., one hour, read-out: IC50 (50 % inhibition concentrations), renin inhibiting activity
pIC50: −log10 of the molar value.
Listing: pIC50 of selected compounds
VALUE_TYPE: pIC50

COMPOUND	REPORTED_RESULT
CC(=O)OCCS(=O)(=O)C[C@@H](Cc1cccc2ccccc12)C(=O)N[C@@H](Cc1c[nH]cn1)C(=O)N[C@@H](CC1CCCCC1)[C@@H](O)[C@@H](O)CN1CCOCC1	8.72
CCCC[C@H](NC(=O)[C@H](Cc1cccc2ccccc12)CS(=O)(=O)C1CCC(OC(C)=O)C1)C(=O)N[C@@H](CC1CCCCC1)[C@@H](O)[C@@H](O)CN1CCOCC1 (single isomer, unassigned) [Example 33 (having a high Rf value)]	8.66
CCCC[C@H](NC(=O)[C@@H](CSCC(COC(C)=O)OC(C)=O)Cc1cccc2ccccc12)C(=O)N[C@@H](CC1CCCCC1)[C@@H](O)[C@@H](O)CN1CCOCC1 (stereo partly shown)	8.55
CCCC[C@H](NC(=O)[C@H](Cc1cccc2ccccc12)CS(=O)(=O)C1CCC(OC(C)=O)C1OC(C)=O)C(=O)N[C@@H](CC1CCCCC1)[C@@H](O)[C@@H](O)CN1CCOCC1 (stereo partly shown)	8.72
